Attribution: ChEMBL document CHEMBL1255199

protocol_text: Half life in human liver microsomes
Type: ADME, Microsome
// assign yes (1) if half-life falls strictly below 0.6 h, else no (0) (ties count as no (0))

The following molecules have reported results that may help.
{"smi": "CCc1c(C)[nH]c2cc(OC)c(Cl)cc2c1=O", "class_assignment": "yes (1)"}
{"smi": "CCCCCCCc1c(C)nc2cc(OC)ccc2c1O", "class_assignment": "yes (1)"}
{"smi": "COc1cc2[nH]c(C)c(-c3ccccc3)c(=O)c2cc1Cl", "class_assignment": "no (0)"}
{"smi": "COc1cc2[nH]c(C)c(/C=C/C(=O)OC(C)(C)C)c(=O)c2cc1Cl", "class_assignment": "no (0)"}

Input COc1cc2[nH]c(C)cc(=O)c2cc1Cl ; condition: half-life strictly below 0.6 h. Does it hold?
no (0)
